Target: T1, Recombinant human CD123 SP1 ECD-His tag protein (human, UniProt P26951 20-305)
T1 construct: bought from R&D Systems (#301-R3/CF); biotinylated for some assays; also called rhCD123 SP1; huCD123 ECD SP1
T1 sequence: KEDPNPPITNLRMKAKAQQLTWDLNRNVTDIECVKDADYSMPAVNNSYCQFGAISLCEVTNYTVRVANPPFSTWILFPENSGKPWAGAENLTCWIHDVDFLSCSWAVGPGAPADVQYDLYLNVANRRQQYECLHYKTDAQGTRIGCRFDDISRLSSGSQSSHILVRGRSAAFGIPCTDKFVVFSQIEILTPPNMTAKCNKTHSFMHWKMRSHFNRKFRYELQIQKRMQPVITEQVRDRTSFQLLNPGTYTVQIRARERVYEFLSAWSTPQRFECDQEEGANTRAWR
Test: SPR Biacore 3000, captured mAb
Measurement label: pKd
The meaning of pKd here: minus log10 of the concentration in molar units.

Check out these entries, answers already filled in.
I3RB18 (antibody, IgG1, V domains shown, IgG1; also called 13RB18; mAb I3RB18) VH: EVQLVQSGAEVKKPGESLKISCKGSGYSFTSYWISWVRQMPGKGLEWMGIIDPSDSDTRYSPSFQGQVTISADKSISTAYLQWSSLKASDTAMYYCARGDGSTDLDYWGQGTLVTVSS VL: EIVLTQSPGTLSLSPGERATLSCRASQSVSSSYLAWYQQKPGQAPRLLIYGASSRATGIPDRFSGSGSGTDFTLTISRLEPEDFAVYYCQQDYGFPWTFGQGTKVEIK    8.92
I3RB35 (antibody, IgG1, V domains shown, IgG1) VH: QVQLVQSGAEVKKPGSSVKVSCKASGGTFSSYAISWVRQAPGQGLEWMGGIIPIFGTANYAQKFQGRVTITADESTSTAYMELSSLRSEDTAVYYCARHLFWDAGPLDYWGQGTLVTVSS VL: DIQMTQSPSSLSASVGDRVTITCRASQSISSYLNWYQQKPGKAPKLLIYAASSLQSGVPSRFSGSGSGTDFTLTISSLQPEDFATYYCQQYFSPPYTFGQGTKVEIK    8.32
I3RB2 (antibody, IgG1, V domains shown, IgG1; also called I3RB02; 13RB2) VH: EVQLLESGGGLVQPGGSLRLSCAASGFTFSGYWMHWVRQAPGKGLEWVSAIRSDGSSKYYADSVKGRFTISRDNSKNTLYLQMNSLRAEDTAVYYCAKDGVIEDTFDYWGQGTLVTVSS VL: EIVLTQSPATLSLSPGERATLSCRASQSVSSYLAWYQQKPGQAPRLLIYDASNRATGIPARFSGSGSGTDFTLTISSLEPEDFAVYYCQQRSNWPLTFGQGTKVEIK    8.11

Shifting focus to the binder that follows.
Which pKd value is on record for I3RB37 (antibody, IgG1, V domains shown, IgG1) VH: QVQLVQSGAEVKKPGSSVKVSCKASGGTFSSYAISWVRQAPGQGLEWMGGIIPIFGTANYAQKFQGRVTITADESTSTAYMELSSLRSEDTAVYYCARDKTDFPSRLDYWGQGTLVTVSS VL: DIQMTQSPSSLSASVGDRVTITCRASQSIATWLNWYQQKPGKAPKLLIYAASSLQSGVPSRFSGSGSGTDFTLTISSLQPEDFATYYCQQYITFPLTFGQGTKVEIK ?
8.01
